- System: platelet aggregation caused by collagen (platelet-rich plasma)
- assay overview: Platelet aggregation-inhibitory action, collagen (20 μg/ml) induced, Born's turbidometric method
- Assay type: cell-based, rabbit
- condition label: Oryctolagus cuniculus, 0.05 h, read-out: 50% inhibitory concentration, Collagen
- Experimental: Blood was drawn from the carotid artery of a rabbit using a syringe containing 3.8% solution of sodium citrate in an amount of […] per volume of the solution. The blood was centrifuged to obtain platelet-rich plasma (PRP: 5×10^5 platelets/μl). In a cuvette was placed 250 μl of the PRP, which is warmed in a constant-temperature bath at 37° C. for 2 min. […]
test readout: IC50 (µM)

[[record]]
compound = "CC(=O)Oc1ccccc1C(=O)O [Aspirin, reference compound]"
test_readout = "IC50"
result_number = 13.6

